- test_details: Second study: 10, 25 or 50 mg per day for 10 days in healthy volunteers, pharmacokinetics on days 1 and 10
- Format: in vivo, human
- condition: human, plasma, oral, 10 mg per day, human, 10 mg per day, Day 10, after 10 hour fast; read-out: Cmax (mean maximum plasma concentration)
- Experimental: In a second study, three cohorts of 8 healthy volunteers each were administered 10, 25, or 50 mg per day for each of 10 days. Administration in every case followed a 10 hour fast. Blood samples were collected from each volunteer at predose (hour 0) and 0.25, 0.5, 0.75, 1, 1.5, 2, 3, 4, 6, 8, 12, 16, 24, 36, 48, and 72 hours on each of days 1 and 10.
property: Cmax

Please look up its Cmax: "C[C@@H](OC[C@@]1(c2ccccc2)CC[C@]2(CCC(=O)N2)CN1)c1cc(C(F)(F)F)cc(C(F)(F)F)c1"
180 ng/mL
